molecules and their reported fold change (FC)
# Tested on: Escherichia coli
# Assay overview: Activation of Escherichia coli nitroreductase assessed as decrease in NADH concentration at 100 uM relative to CB-1954
Lab note: jot the number down without any unit.

[[record]]
entry_smiles = "NC(=O)c1cc([N+](=O)[O-])cc2c1n1c([n+]2[O-])-c2ccccc2CC1"
readout_value = 0.9


Indicate the recorded fold change (FC) value for this molecule: `O=[N+]([O-])c1ccc2c(c1)[n+]([O-])c1n2CCc2c-1cccc2[N+](=O)[O-]`
0.8

Give the reported fold change (FC) for this molecule. `O=[N+]([O-])c1ccc2c(c1)-c1n(c3ccc([N+](=O)[O-])cc3[n+]1[O-])CC2`
0.6

Return fold change (FC) for the following molecule: `NC(=O)c1cc([N+](=O)[O-])cc([N+](=O)[O-])c1N1CCc2ccccc2C1`
1.5

====

# Tested system: NAD(P)H dehydrogenase [quinone] 1 (Homo sapiens)
# Assay overview: Activation of human NQO1 assessed as decrease in substrate concentration at 100 uM by HPLC analysis relative to CB-1954
Measured metric: fold change (FC)

Reference set, count: 5
[[record]]
entry_smiles = "O=[N+]([O-])c1ccc2c(c1)-c1n(c3ccc([N+](=O)[O-])cc3[n+]1[O-])CC2"
readout_value = "< 0.16"

[[record]]
entry_smiles = "NC(=O)c1cc([N+](=O)[O-])c(N2CCc3ccccc3C2)c([N+](=O)[O-])c1"
readout_value = "< 0.16"

[[record]]
entry_smiles = "O=[N+]([O-])c1ccc2c(c1)[n+]([O-])c1n2CCc2ccccc2-1"
readout_value = 2.6

[[record]]
entry_smiles = "NC(=O)c1cc([N+](=O)[O-])cc2c1n1c([n+]2[O-])-c2ccccc2CC1"
readout_value = "< 0.16"

[[record]]
entry_smiles = "NC(=O)c1cc2c(cc1[N+](=O)[O-])[n+]([O-])c1n2CCc2c-1cccc2[N+](=O)[O-]"
readout_value = "< 0.16"


Name the recorded fold change (FC) of the molecule listed here: `O=[N+]([O-])c1cc([N+](=O)[O-])c(N2CCc3ccccc3C2)c(C(F)(F)F)c1`
17.7

Input `NC(=O)c1cc([N+](=O)[O-])cc([N+](=O)[O-])c1N1CCc2ccccc2C1` , output reported fold change (FC).
8.6

Give reported fold change (FC) value for `NC(=O)c1cc2c(cc1[N+](=O)[O-])[n+]([O-])c1n2CCc2ccccc2-1`
< 0.16

Supply measured fold change (FC) of `O=C(O)c1cc([N+](=O)[O-])c(N2CCc3ccccc3C2)c([N+](=O)[O-])c1` in your reply.
< 0.16

====

# Tested system: NAD(P)H dehydrogenase [quinone] 1 (Homo sapiens) (UniProt P15559)
# Sequence (P15559 whole entry): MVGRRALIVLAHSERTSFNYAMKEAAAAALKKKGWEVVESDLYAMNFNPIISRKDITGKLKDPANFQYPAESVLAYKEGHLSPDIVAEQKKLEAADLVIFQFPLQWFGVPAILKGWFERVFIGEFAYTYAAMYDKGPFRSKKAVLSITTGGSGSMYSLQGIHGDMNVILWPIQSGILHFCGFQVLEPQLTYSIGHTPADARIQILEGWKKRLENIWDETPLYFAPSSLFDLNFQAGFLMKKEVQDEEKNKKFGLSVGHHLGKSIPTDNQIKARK
# Assay overview: Activation of human NQO1 assessed as specific activity per mg of protein at 100 uM by measuring decrease in substrate concentration by HPLC analysis
Measured metric: Activity

Before answering, review these 4 worked examples.
[[record]]
entry_smiles = "O=C(O)c1cc([N+](=O)[O-])cc([N+](=O)[O-])c1N1CCc2ccccc2C1"
readout_value = "0.011 µmol/min"

[[record]]
entry_smiles = "NC(=O)c1cc2c(cc1[N+](=O)[O-])[n+]([O-])c1n2CCc2ccccc2-1"
readout_value = "< 0.001 µmol/min"

[[record]]
entry_smiles = "NC(=O)c1cc2c(cc1[N+](=O)[O-])[n+]([O-])c1n2CCc2c-1cccc2[N+](=O)[O-]"
readout_value = "< 0.001 µmol/min"

[[record]]
entry_smiles = "O=[N+]([O-])c1cnc2c(c1)[n+]([O-])c1n2CCc2ccccc2-1"
readout_value = "0.17 µmol/min"


Tell us which Activity value is on record for `NC(=O)c1cc(N2CCc3ccccc3C2)c([N+](=O)[O-])cc1[N+](=O)[O-]`
0.042 µmol/min

Tell me measured Activity for `NC(=O)c1cc([N+](=O)[O-])cc2c1n1c([n+]2[O-])-c2ccccc2CC1` please.
< 0.001 µmol/min

Identify Activity associated with the compound `O=[N+]([O-])c1cnc(N2CCc3ccccc3C2)c([N+](=O)[O-])c1`
0.013 µmol/min

Specify reported Activity for the compound shown: `O=[N+]([O-])c1ccc(N2CCc3ccccc3C2)c([N+](=O)[O-])c1`
< 0.001 µmol/min

Please give the documented Activity of `NC(=O)c1cc([N+](=O)[O-])c(N2CCc3ccccc3C2)c([N+](=O)[O-])c1`
< 0.001 µmol/min
